assayed.target: Beta-3 adrenergic receptor (Homo sapiens, UniProt P13945)
Sequence (P13945 whole entry): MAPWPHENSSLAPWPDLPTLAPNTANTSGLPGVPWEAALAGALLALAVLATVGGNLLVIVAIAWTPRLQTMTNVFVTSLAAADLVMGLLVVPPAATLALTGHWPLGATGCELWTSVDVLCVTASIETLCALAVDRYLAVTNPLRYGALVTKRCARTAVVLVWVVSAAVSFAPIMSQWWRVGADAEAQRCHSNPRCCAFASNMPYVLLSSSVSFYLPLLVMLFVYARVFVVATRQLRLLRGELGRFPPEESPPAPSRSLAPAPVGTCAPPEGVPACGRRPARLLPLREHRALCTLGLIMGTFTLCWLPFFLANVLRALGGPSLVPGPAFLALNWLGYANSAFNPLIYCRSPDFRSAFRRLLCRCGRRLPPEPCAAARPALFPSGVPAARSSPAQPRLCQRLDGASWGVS
protocol.details: Agonist activity against cloned human beta-3 adrenergic receptor
readout.name: EC50 (nM)
Field format: number, assumed nM, no unit text.

- input.smiles: "CC(C)S(=O)(=O)Nc1ccc(CCNC[C@H](O)COc2ccc(O)cc2)cc1"
  experimental.result: 25
- input.smiles: "O=S(=O)(Nc1ccc(CCNC[C@H](O)COc2ccc(O)cc2)cc1)c1ccc2ccccc2c1"
  experimental.result: 5.4

Attention now turns to another entry.
Briefly, EC50 measured for COc1ccc(S(=O)(=O)Nc2ccc(CCNC[C@H](O)COc3ccc(O)cc3)cc2)cc1 : 4.3
